tested on: OVCAR-4 ovarian; assay: NCI-60 one-dose screen, 48 h (100 = growth as untreated, 0 = no growth, -100 = all killed); conditions: 10 µM unless noted
Compounds without any hit were thinned out: in the full panel of roughly 83,000, 20% have a hit. Calls of active or inactive are those of the source. Rule for the calls: active = growth percent below 10; inactive = the rest.
Parameter: growth. Scope: all listed entries.

// worked examples, growth included
Cc1ccc(/C=C(\C#N)c2cc3ccccc3[nH]2)cc1: 71.6% (inactive)
COc1ccc(-c2ccccc2)cc1-c1c(Nc2cc(Cl)cc(Cl)c2O)c(=O)c1=O: 16.8% (inactive)

Prompt: Answer with reported growth of C=C1C(=O)O[C@H]2[C@H]1CC/C(COC(=O)NCc1ccc(Cn3c(=O)sn(CCCI)c3=O)cc1)=C\CC[C@@]1(C)O[C@@H]21
Completion: 17.7% (inactive)

Prompt: Answer with reported growth of O=C(NNc1ccccc1)c1ncc[nH]1
Completion: 48.4% (inactive)

Prompt: Answer with reported growth of O=C(/C=C/c1ccc(F)cc1)Nc1ncc(Cc2ccc(F)cc2)s1
Completion: 64.3% (inactive)

Prompt: Answer with reported growth of COc1ccc(C2Nc3nc(SC)nc(N)c3N=C3c4ccccc4CCC32)cc1 (stereo not given)
Completion: 53.9% (inactive)

Prompt: Answer with reported growth of CC(=O)N1N=C(c2ccc(Nc3nc(Nc4ccc(F)cc4)nc(Nc4ccc(F)cc4)n3)cc2)CC1c1ccccc1 (stereo not given)
Completion: 95.3% (inactive)

Prompt: Answer with reported growth of COc1ccc(-c2cc3cnc4ccccc4c3oc2=O)cc1
Completion: 103% (inactive)

Prompt: Answer with reported growth of C=CCN1C=CC(=O)[C@H](O[Si](C)(C)C(C)(C)C)[C@@H]1/C=C/c1ccccc1
Completion: -84% [100 µM] (active)

Prompt: Answer with reported growth of O=[N+]([O-])c1ccc2[nH]c3nccc(NCc4cccc(Cl)c4)c3c2c1
Completion: -35% (active)

====

system: SF-268 CNS; assay: NCI-60 one-dose screen, 48 h (100 = growth as untreated, 0 = no growth, -100 = all killed); details: 10 µM unless noted
Compounds without any hit were thinned out: in the full panel of roughly 83,000, 20% have a hit.
Short version: growth at least 40% is yes, less is no.

Some solved cases for reference:
O=C1/C(=C/c2cn(-c3ccccc3)nc2-c2ccccc2)SC(=S)N1c1ccc(Cl)cc1: yes
Cn1cc2c(=O)nc3c(-c4nc5ccccc5[nH]4)n[nH]n3c2n1: yes

Prompt: Please check the record COc1ccc(-c2c[nH]c(C(=O)O)c2-c2cc(OC)c(OC)c(OC)c2)cc1 and state if its growth is at or above 40%.
Completion: yes

Prompt: Please check the record N=C1/C(=C2\NC3C=CC=CC3S2)C(c2ccc(Cl)cc2)C2C(=O)N(c3ccccc3)C(=S)N12 (stereo not given) and state if its growth is at or above 40%.
Completion: yes

Prompt: Please check the record COC(=O)c1nc(-c2ccc(C)cc2)oc1S(=O)(=O)c1ccc(Cl)cc1 and state if its growth is at or above 40%.
Completion: yes

Prompt: Please check the record COc1cc(Cl)cc(-c2nn(C(=O)NS(=O)(=O)c3ccc(Cl)cc3)cc2-c2ccncc2)c1 and state if its growth is at or above 40%.
Completion: yes

Prompt: Please check the record O=C(Nc1ccc2ccccc2c1)c1cc2ccccc2cc1O and state if its growth is at or above 40%.
Completion: no

====

Parameter: growth. Scope: all listed entries.
system: KM12 colon; test: NCI-60 one-dose screen, 48 h (100 = growth as untreated, 0 = no growth, -100 = all killed); settings: 10 µM unless noted
The panel holds about 83,000 compounds, 20% with a hit somewhere; the sample as a whole holds those more often.
Quick note: give the figure in %, leave out the unit.

Prompt: Answer with reported growth of O=C1C(c2c[nH]c3ccccc23)=C(c2coc3cc(Br)ccc23)C(=O)N1O
Completion: 97.9

Prompt: Answer with reported growth of Cc1ccc(-c2nc3nc(-c4ccc(F)cc4)nc(N4CCCNCC4)c3o2)cc1
Completion: -86.3

Prompt: Answer with reported growth of CC(C)(C)CC(N)=O
Completion: 109

Prompt: Answer with reported growth of C[C@@H]1O[C@@H](O[C@H]2[C@@H](OC(=O)[C@]34CCC(C)(C)C[C@H]3C3=CC[C@@H]5[C@@]6(C)C[C@H](O)[C@H](O[C@@H]7O[C@H](CO)[C@@H](O)[C@H](O)[C@H]7O)[C@@](C)(CO)[C@@H]6CC[C@@]5(C)[C@]3(C)C[C@H]4O)OC[C@@H](O)[C@@H]2O)[C@H](O)[C@H](O[C@@H]2OC[C@@H](O)[C@H](O[C@@H]3OC[C@](O)(CO)[C@H]3O[C@@H]3OC[C@@H](O)[C@H](O)[C@H]3O)[C@H]2O)[C@H]1O[C@@H]1OC[C@](O)(CO)[C@H]1O
Completion: 66.5

Prompt: Answer with reported growth of O=C(CCN1CCOCC1)Nc1cccc(-n2cc(-c3ccncc3)c(-c3ccc(Cl)c(O)c3)n2)c1
Completion: 23.7

Prompt: Answer with reported growth of COc1ccc(S(=O)(=O)Nc2cc(Sc3cccc4cccnc34)c(O)c3ccccc23)cc1
Completion: 20.3

Prompt: Answer with reported growth of CONC1=Nc2cc(NC(N)=NCc3ccccc3)c(N(C)C3CCCCC3)cc2OC1
Completion: 61.5

Prompt: Answer with reported growth of COc1ccc(-c2ccccc2)cc1-c1c(Nc2cc(Cl)cc(Cl)c2O)c(=O)c1=O
Completion: 7.85

====

system: KM12 colon; test: NCI-60 one-dose screen, 48 h (100 = growth as untreated, 0 = no growth, -100 = all killed); details: 10 µM
Compounds without any hit were thinned out: in the full panel of roughly 83,000, 20% have a hit.
quantity-measured: growth (%)
Quick note: give the figure in %, leave out the unit.

// worked examples, growth included
COc1ccc(C(=O)/C=C/c2ccc(OCc3ccc(Cl)cc3)cc2)cc1OC: 90.7
O=C(/C=C/c1cccc(Oc2ccc(Cl)cc2)c1)c1ccccc1: 75.3
COc1ccc(C(=O)/C=C/c2ccc(OCc3cccc(C(F)(F)F)c3)c(OC)c2)cc1OC: 72.5

Prompt: Look up and report measured growth (KM12 colon) for the following compound: CC(=O)/C=C/c1ccc(OCc2ccc(Cl)cc2)cc1
Completion: 93.9

====

test system: MDA-MB-435 melanoma; test: NCI-60 one-dose screen, 48 h (100 = growth as untreated, 0 = no growth, -100 = all killed); conditions: 10 µM unless noted
This is part of a sample that, as a whole, favours compounds with a hit. Of some 83,000 tested, about 20% had one in any assay.
Short version: growth at least 20% is YES, less is NO.

Some solved cases for reference:
CCCCC1=C(Br)C(=O)c2nc(C)ccc2C1=O: YES
CCCCC1COc2cccc3c2N1C=C/C3=C\C(=O)N(C)c1cccc(Cl)c1 (stereo not drawn): YES
CN1C(=O)/C(=C/c2ccc(C(=O)Nc3ncc(Cc4ccccc4Cl)s3)cc2)SC1=S: NO
CN(C)CCN1C(=O)c2c(c3c4ccccc4n4c3c3c2c2ccccc2n3C2CC(O)C(O)C4(C)O2)C1=O (stereo not drawn): YES
Clc1ccc(Nc2nc(Nc3ccc(Cl)cc3)nc(Nc3ccc(-c4cc(-c5cccc(Cl)c5)on4)cc3)n2)cc1: YES
COc1nc2ccc(C)cc2cc1/C=[N+](\[O-])c1ccccc1: YES
Cc1ccc(S(=O)(=O)OC[C@@]2(C)CC[C@]3(C)CC[C@]4(C)C(=C3C2)C=C[C@@H]2[C@@]3(C)CCCNC(C)(C)[C@@H]3CC[C@]24C)cc1: NO
[Cu+].[NH-][C@H]1C[N-]C(=O)[C@H]([C@H]2CCN=C(N)N2)[N-]C(=O)/C(=C\NC(N)=O)[N-]C(=O)[C@H](CNC(=O)C[C@@H](N)CCCN)[N-]C(=O)[C@H](CO)[N-]C1=O: YES
CCC(=C(c1ccc(OCCCN(C)C)cc1)c1ccc(OCCCN(C)C)cc1)c1ccc(Cl)cc1: NO
COc1ccc(/C=C2\COc3ccc(O)c(O)c3C2=O)c(OC)c1OC: NO

// next entry
Prompt: Please check the record COc1ccc(C(c2cc(OC)c(OC)c(OC)c2)n2ccnc2)cc1O (stereo not drawn) and state if its growth is at or above 20%.
Completion: NO

====

Parameter: growth. Scope: all listed entries.
test system: SK-MEL-5 melanoma; assay: NCI-60 one-dose screen, 48 h (100 = growth as untreated, 0 = no growth, -100 = all killed); conditions: 10 µM
Compounds without any hit were thinned out: in the full panel of roughly 83,000, 20% have a hit.
Quick note: give the figure in %, leave out the unit.

// worked examples, growth included
CC(=O)/C=C/c1ccc(OCc2ccc(Cl)cc2)cc1: 97.7
CC(=O)/C=C/c1ccc(N(CCO)Cc2ccc(C(C)(C)C)cc2)cc1: 70
O=C(/C=C/c1cccc(Oc2ccc(Cl)cc2)c1)c1ccccc1: 105

Prompt: Answer with reported growth of CC(=O)/C=C/c1ccc(N(C)Cc2ccc(C(C)(C)C)cc2)cc1
Completion: 74.7

Prompt: Answer with reported growth of CC(=O)/C=C/c1ccc(OCc2ccc(C(C)(C)C)cc2)cc1
Completion: 50.3

Prompt: Answer with reported growth of COc1ccc(C(=O)/C=C/c2ccc(OCc3cccc(C(F)(F)F)c3)c(OC)c2)cc1OC
Completion: 76.5

Prompt: Answer with reported growth of CCN(Cc1ccccc1)c1ccc(/C=C2\COc3ccccc3C2=O)cc1
Completion: 102

Prompt: Answer with reported growth of COc1ccc(C(=O)/C=C/c2ccc(OCc3ccc(Cl)cc3)cc2)cc1OC
Completion: 92.3
